Values from PubChem BioAssay (Tox21)

max activation overview
- tested-target: Nuclear receptor subfamily 1 group I member 2 (Rattus norvegicus)
- experiment-notes: Rat pregnane X receptor (rPXR) activation by small molecules, qHTS assay (AID 1346983); note: % is set by controls: 0 for no effect and ±100 for the full control effect
- experimental-conditions: rPXR luciferase reporter cells, One-Glo luminescence, 24 h; stronger effect = higher value
- Description: National Center for Advancing Translational Sciences [NCATS] NIH Chemical Genomics Center [NCGC] U.S. Environmental Protection Agency [EPA] National Institutes of Environmental Health Sciences [NIEHS] National Toxicology Program [NTP] Assay overview: The Pregnane X receptor (PXR), a ligand activated nuclear receptor plays a critical role in the regulation of genes involved in drug metabolism and transporters. […]
Records with an inconclusive call do not appear.

compound: CN1C[C@H](C(=O)N[C@]2(C)O[C@@]3(O)[C@@H]4CCCN4C(=O)[C@H](Cc4ccccc4)N3C2=O)C=C2c3cccc4[nH]cc(c34)C[C@H]21
max activation / %: -2.24

compound: CCCCCCCCCCCC[N+](C)(C)CCOc1ccccc1
max activation / %: -6.32

compound: CCN(C(C)=O)c1cccc(-c2ccnc3c(C#N)cnn23)c1
max activation / %: -2.18

compound: CCCC[N+]1(C)[C@@H]2CC(OC(=O)[C@H](CO)c3ccccc3)C[C@H]1[C@@H]1O[C@@H]12 (stereo not given in full)
max activation / %: -0.805

compound: CC[N+]1(CCOC(=O)C(O)(c2ccccc2)c2ccccc2)CCCCC1
max activation / %: 0.456

compound: COC1CC(=C(c2cccs2)c2cccs2)C[N+](C)(C)C1 (stereo not given)
max activation / %: -1.69

compound: CCOC(=O)c1cncn1C(C)c1ccccc1 (stereo not given)
max activation / %: 0.791

compound: CCC1(CC)C(=O)NC(=O)NC1=O
max activation / %: 0.212

compound: CC(C)(C)NCC(O)c1ccccc1Cl (stereo not given)
max activation / %: -2.03

compound: O=C1CC[C@@]2(O)[C@H]3Cc4ccc(O)c5c4[C@@]2(CCN3CC2CC2)[C@H]1O5
max activation / %: -2.95
